The measured values listed here are drawn from the nanobody polyreactivity screen of Harvey et al. (2022).

Experiment: yeast display, Sf9 membrane polyspecificity reagent, FACS + sequencing; frameworks hold sequencing errors

>  <biopolymer.sequence>
QVQLVESGGGLVQAGGSLRLSCAASGRIFSRNAMGWYRQAPGKERELVAAISRSGTSTYYADSVKGRFTISRDNAKNTVYLQMNSLKPEDTAVYYCAADYPAVISIRRYDYWGQGTQVTVSS

>  <polyreactivity (PSR sort gate)>
low polyreactivity

$$$$
>  <biopolymer.sequence>
QVQLVESGGGLVQAGGSLRLSCAASGSTLAKYAMGWYRQAPGKERELVAAISWSGGRTYYADSVKGRFTISRDNAKNTVYLQMNSLKPEDTAVYYCAARARSSRTYHDDYWGQGTQVTVSS

>  <polyreactivity (PSR sort gate)>
high polyreactivity

$$$$
>  <biopolymer.sequence>
QVQLVESGGGLVQAGGSLRLSCAASGRIFKYNAMGWYRQAPGKERELLAAITRGGSTNYADSVKGRFTISRDNAKNTVYLQMNSLKPEDTAVYYCAALRSRYGRDMDYWGQGTQVTVSS

>  <polyreactivity (PSR sort gate)>
high polyreactivity

$$$$
>  <biopolymer.sequence>
QVQLVASRGGLVQAGGILRLSSAASGSTFPSYEMGWYRQARGKERELVAAINSGRGSNYADSVKGRFTISRDNAKNTVYLQMNCLIPDDTAVYYCGISRYDYTNTEGGYWGQGTQVTVSS

>  <polyreactivity (PSR sort gate)>
low polyreactivity

$$$$
>  <biopolymer.sequence>
QVQLVESGGGLVQAGGSLRLSCAASGSTSPTNVMGWYRQAPGKERELVAAISYSGGRTYYADSVKGRFTISRDNAKNTVYLQMNSLKPEDTAVYYCNAGKRGSTYYYWGQGTQVTVSS

>  <polyreactivity (PSR sort gate)>
high polyreactivity

$$$$

###

Assay: yeast display, Sf9 membrane polyspecificity reagent, FACS + sequencing; frameworks hold sequencing errors

>  <biopolymer.sequence>
QVQLVESGGGLVQAGGSLRLSCAASGSTFDDYAMGWYRQATGIERELVAAINNGGSTTYADSVKGRFTISRDNAKNTVYLQMNSLKPEDTAVYYCAKDSGAWEYDYWGQGTQVTVSS

>  <polyreactivity (PSR sort gate)>
low polyreactivity

$$$$
>  <biopolymer.sequence>
QVQLVESGGGLVQAGGSLRLSCAASGRTFTKYAMGWYRQAPGKERELVAGITRRGGNTYYADSVKGRFTISRDNAKNTVYLQMNSLKPEDTAVYYCAKGYDFLRYDYWGQGTQVTVSS

>  <polyreactivity (PSR sort gate)>
high polyreactivity

$$$$
>  <biopolymer.sequence>
QVQLVESRGGLVQAGGSLRLSCAASGRTFWYYAMGWYRQAPGKELELVATITGSGGTTYYADSVKGRFTISRDNAKNTVYLQMNSLKPEDTAVYYCAKEQHWYIYGPAEVDYWGQGTQVTVSS

>  <polyreactivity (PSR sort gate)>
high polyreactivity

$$$$
>  <biopolymer.sequence>
QVQLVESGGGLVQAGGSLRLSCAASGFIFRWYTMGWYRQAPGKERELVAAISSSGGTTYYADSVKGRFTISRDNAKNTVYLQMNSLKPEDTAVYYCTTRYPLGGTYTRYPLKGDYWGQGTQVTVSS

>  <polyreactivity (PSR sort gate)>
high polyreactivity

$$$$
>  <biopolymer.sequence>
QVQLVESGGGLVQAGGSLRLSCAASGSTFYLNAMGWYRKAHGKERELVAPINGSGGSTYADSVKGRFTISRDNAKNTVYLQLHSLKPEDTAVYYCAADGTGYPGDSYPGMDYDYWGQVTQVTVSS

>  <polyreactivity (PSR sort gate)>
low polyreactivity

$$$$
